Source: PubChem BioAssay (NCI)

- Tested on: BT-549 breast
- EXPERIMENT NOTES: NCI-60 one-dose screen, 48 h (100 = growth as untreated, 0 = no growth, -100 = all killed)
- CONDITION INFO: 10 µM unless noted
The panel holds about 83,000 compounds, 20% with a hit somewhere; the sample as a whole holds those more often.
MEASURED METRIC: growth (%)
Number only, in %; omit the unit.

{"columns": ["COMPOUND", "UNIT LABEL", "EXPERIMENTAL VALUE"],
 "data": [
  ["COc1ccc(-c2ccc(-c3ccc(C(=N)N)cn3)o2)cc1Cl", "%", 57.8],
  ["COC(=O)N/N=C/c1c[n+]([O-])c2ccccc2[n+]1[O-]", "%", 108],
  ["CC(Sc1ccccc1)C(=O)O (stereo unspecified)", "%", 96.5],
  ["O=S(=O)(Nc1ccc(F)cc1)c1ccc(-c2cnc(C3CC3)o2)cc1", "%", 52.8],
  ["Nc1nc(N)c2c(n1)NC(c1ccc(Cl)cc1)CC(c1cccc(Nc3ccncc3)c1)=N2 (stereo unspecified)", "%", 110]
]}

Exercise: Find the recorded growth belonging to O=C1/C(=C/c2cn(-c3ccccc3)nc2-c2ccccc2)SC(=S)N1c1ccccc1 and report it.
Key: 98

Exercise: Find the recorded growth belonging to OCCN1CCN(CC/C=C2\c3ccccc3Sc3ccc(Cl)cc32)CC1 and report it.
Key: 67.5

Exercise: Find the recorded growth belonging to CN(Cc1ccccc1)c1nc(Cl)c(C2CC(c3ccc(F)cc3)=NN2C=O)s1 (stereo unspecified) and report it.
Key: 113

Exercise: Find the recorded growth belonging to COc1ccc(Cl)cc1Nc1nc(C(F)(F)F)ccc1C(=O)N/N=C/c1ccc(N(C)C)cc1 and report it.
Key: 115

Exercise: Find the recorded growth belonging to Cc1nc2sc(C(=O)Nc3cccc4ccccc34)c(N)c2cc1C(=O)/C=C/c1ccccc1 and report it.
Key: -31.1

Exercise: Find the recorded growth belonging to Clc1ccc(Nc2nc(Nc3ccc(Cl)cc3)nc(Nc3ccc(-c4cc(-c5cccc(Cl)c5)on4)cc3)n2)cc1 and report it.
Key: 98.6

---

- Test system: HCT-15 colon
- EXPERIMENT NOTES: NCI-60 one-dose screen, 48 h
- CONDITION INFO: 10 µM unless noted
This is part of a sample that, as a whole, favours compounds with a hit. Of some 83,000 tested, about 20% had one in any assay. The source made the active and inactive calls. Rule for the calls: active = growth percent below 10; inactive = the rest.
Permitted responses: active, inactive

The examples below pair each entry with its known result.
{"columns": ["COMPOUND", "STUDY TARGET", "ASSIGNED LABEL"],
 "data": [
  ["Cn1cc2c(=O)nc3c(-c4nc5ccccc5[nH]4)n[nH]n3c2n1", "HCT-15 colon", "inactive"],
  ["N=C(N)c1ccc(-c2ccc(-c3ccc(Cl)c(Cl)c3)s2)cc1", "HCT-15 colon", "active"],
  ["COc1cc(/C=C(/c2ccccc2)[N+](=O)[O-])c(OC)c2c1OCO2", "HCT-15 colon", "active"]
]}

Exercise: Hi team, can someone confirm the assay call for O=C1c2cccc3cccc(c23)C(=O)N1N1C(=O)c2cccc3c(N4CCNCC4)ccc(c23)C1=O ?
Key: inactive

Exercise: Hi team, can someone confirm the assay call for Nc1nc(N)c2c(n1)NC(c1ccc(Cl)cc1)CC(c1cccc(Nc3ccncc3)c1)=N2 (stereo not given) ?
Key: inactive

---

- Tested on: A549/ATCC NSCLC
- EXPERIMENT NOTES: NCI-60 one-dose screen, 48 h (100 = growth as untreated, 0 = no growth, -100 = all killed)
- CONDITION INFO: 10 µM unless noted
This is part of a sample that, as a whole, favours compounds with a hit. Of some 83,000 tested, about 20% had one in any assay.
growth reference
Number only, in %; omit the unit.

Exercise: Any idea what growth came out for COc1nc(=O)n(C2C=CC(=O)O2)cc1F (stereo not given) on A549/ATCC NSCLC?
Key: 123

Exercise: Any idea what growth came out for CCCN1C(=O)/C(=c2\sc3n(c2=O)NC2C(N=3)N(CC)C(=O)N2CC)c2ccccc21 (stereo not given) on A549/ATCC NSCLC?
Key: 42

Exercise: Any idea what growth came out for O=c1cc(N/N=C/c2ccc(F)cc2)c2cc(Cl)ccc2[nH]1 on A549/ATCC NSCLC?
Key: 89.3

Exercise: Any idea what growth came out for CCOC(=O)C1=C(C)NC(=O)NC1c1c(Cl)n(-c2ccccc2)c2ccccc12 (stereo not given) on A549/ATCC NSCLC?
Key: 88.2

Exercise: Any idea what growth came out for COc1cc2nc3cc([N+](=O)[O-])ccc3c(NCCNCC(C)(C)O)c2cc1OC on A549/ATCC NSCLC?
Key: -9.76

---

- Tested on: T-47D breast
- EXPERIMENT NOTES: NCI-60 one-dose screen, 48 h (100 = growth as untreated, 0 = no growth, -100 = all killed)
- CONDITION INFO: 10 µM unless noted
The panel holds about 83,000 compounds, 20% with a hit somewhere; the sample as a whole holds those more often.
Label True when growth is at or above 60%; otherwise label False.

The examples below pair each entry with its known result.
{"columns": ["COMPOUND", "ASSIGNED LABEL"],
 "data": [
  ["Cc1ccc(S(=O)(=O)Nc2cc(Sc3ccccc3)c(O)c3ccccc23)cc1", "False"],
  ["COc1cc2cc(NCc3ccncc3)nc(C)c2cc1OC", "True"],
  ["CCCCn1c(C(=O)c2c[nH]c3ccccc23)n[nH]c1=S", "True"],
  ["COc1ccc(C/C(C)=C(/c2ccc(OCCN3CCCC3)cc2)c2ccc(OC(=O)NCc3ccccc3)cc2)cc1", "False"],
  ["O=C(Cc1ccc(F)cc1)c1ccccc1", "True"],
  ["CCCCC1=C(Br)C(=O)c2nc(C)ccc2C1=O", "True"],
  ["CCOC(=O)C(=Cc1ccc(C#N)cc1)C(=O)OCC", "False"],
  ["O=C(N/N=C/c1ccc(O)cc1O)c1cccc(Nc2ccnc(C(F)(F)F)c2)c1", "False"],
  ["O=S(=O)(Nc1cc(Sc2cccc3cccnc23)c(O)c2ccccc12)c1ccc(F)cc1", "False"],
  ["C[C@@H]1O[C@@H](O[C@H]2[C@@H](OC(=O)[C@]34CCC(C)(C)C[C@H]3C3=CC[C@@H]5[C@@]6(C)C[C@H](O)[C@H](O[C@@H]7O[C@H](CO)[C@@H](O)[C@H](O)[C@H]7O)[C@@](C)(CO)[C@@H]6CC[C@@]5(C)[C@]3(C)C[C@H]4O)OC[C@@H](O)[C@@H]2O)[C@H](O)[C@H](O[C@@H]2OC[C@@H](O)[C@H](O[C@@H]3OC[C@](O)(CO)[C@H]3O[C@@H]3OC[C@@H](O)[C@H](O)[C@H]3O)[C@H]2O)[C@H]1O[C@@H]1OC[C@](O)(CO)[C@H]1O", "False"]
]}

Exercise: Entry CC(=O)N1N=C(c2ccc(Nc3nc(Nc4ccc(F)cc4)nc(Nc4ccc(F)cc4)n3)cc2)CC1c1ccccc1 (stereo not drawn) : is its growth no less than 60%?
Key: False

Exercise: Entry CC(=O)c1c(C)nc(SCC(=O)Nc2ccc(Cl)cc2)n1-c1ccc(Cl)cc1 : is its growth no less than 60%?
Key: True

Exercise: Entry Nc1c(C(=O)Nc2ccncc2)sc2nc3c(cc12)CCCCCCCC3 : is its growth no less than 60%?
Key: False

Exercise: Entry COC1=CC(c2ccc[nH]2)=N/C1=C\c1[nH]c(C)c(C(=O)Oc2ccccc2)c1C : is its growth no less than 60%?
Key: False

Exercise: Entry [2H]C([2H])([2H])Oc1cc(F)ccc1/C=C/C(=O)/C=C(/C=C/c1ccc(F)cc1OC([2H])([2H])[2H])OB(F)F : is its growth no less than 60%?
Key: False

Exercise: Entry Cc1ccc(-c2nc3nc(-c4ccccc4)nc(N4CCCNCC4)c3o2)cc1 : is its growth no less than 60%?
Key: False

Exercise: Entry O=c1cc(N/N=C/c2ccc(F)cc2)c2cc(Cl)ccc2[nH]1 : is its growth no less than 60%?
Key: True

---

- System: SF-539 CNS
- EXPERIMENT NOTES: NCI-60 one-dose screen, 48 h
- CONDITION INFO: 10 µM unless noted
Compounds without any hit were thinned out: in the full panel of roughly 83,000, 20% have a hit. Active and inactive are the calls of the source. Rule for the calls: active = growth percent below 10; inactive = the rest.
Permitted responses: active, inactive

The examples below pair each entry with its known result.
{"columns": ["COMPOUND", "ASSIGNED LABEL"],
 "data": [
  ["CCOC(=O)n1cc(-c2nonc2-c2cn(C)c3ccc(OC)cc23)c2cc(F)ccc21", "inactive"],
  ["Cc1[nH]c(C(=O)Nc2nc3ccc(NC(=O)CCN)cc3s2)c(Cl)c1Cl", "inactive"],
  ["O=C(Nc1ccccc1C(=O)N/N=C(\\c1ccccc1)c1ccccn1)c1ccccc1", "active"]
]}

Exercise: Hi team, can someone confirm the assay call for COc1ccc(Nc2nn3c(SCC(=O)c4ccc(C)cc4)nnc3s2)cc1 ?
Key: inactive

Exercise: Hi team, can someone confirm the assay call for NCCOCCOc1ccccc1 ?
Key: inactive

Exercise: Hi team, can someone confirm the assay call for N=C(N)SCc1c2ccccc2c(CSC(=N)N)c2ccccc12 ?
Key: inactive

Exercise: Hi team, can someone confirm the assay call for Cc1ccc(-c2nc([P+](c3ccccc3)(c3ccccc3)c3ccccc3)c(Nc3ccccc3)o2)cc1 ?
Key: active
